Quick reference: Ratio IC50 of the listed items.
species on record: Homo sapiens; experiment: Selectivity ratio of IC50 for ETB receptor (unknown origin) to IC50 for ETA receptor (unknown origin)
Form: value (number only, do not type unit).

>>> measured_value("CCc1cc2c(cc1Cn1c(C(=O)O)c(Cc3cccc(C(=O)O)c3)c(=O)c3cc(OCC4CCC4)ccc31)OCO2")
2.7
>>> measured_value("CCCOc1ccc2c(c1)c(=O)c(Cc1cccc(C(=O)O)c1)c(C(=O)O)n2Cc1cc2c(cc1CC)OCO2")
683
>>> measured_value("CCc1cc2c(cc1Cn1c(C(=O)O)c(Cc3cccc(-c4nnn[nH]4)c3)c(=O)c3cc(OCC(C)C)ccc31)OCO2")
112
>>> measured_value("CCCCOc1ccc2c(c1)c(=O)c(Cc1cccc(-c3nnn[nH]3)c1)c(C(=O)O)n2Cc1cc2c(cc1CC)OCO2")
514
>>> measured_value("CCc1cc2c(cc1Cn1c(C(=O)O)c(Cc3cccc(-c4nnn[nH]4)c3)c(=O)c3cc(OCC4CCC4)ccc31)OCO2")
5

Query: Please report the recorded Ratio IC50 for CCc1cc2c(cc1Cn1c(C(=O)O)c(Cc3cccc(C(=O)O)c3)c(=O)c3cc(O)ccc31)OCO2 .
Response: 421

Query: Please report the recorded Ratio IC50 for CCOc1ccc2c(c1)c(=O)c(Cc1cccc(C(=O)O)c1)c(C(=O)O)n2Cc1cc2c(cc1CC)OCO2 .
Response: 472

Query: Please report the recorded Ratio IC50 for CCc1cc2c(cc1Cn1c(C(=O)O)c(Cc3cccc(-c4nnn[nH]4)c3)c(=O)c3cc(O)ccc31)OCO2 .
Response: 558

Query: Please report the recorded Ratio IC50 for CCOc1ccc2c(c1)c(=O)c(Cc1cccc(-c3nnn[nH]3)c1)c(C(=O)O)n2Cc1cc2c(cc1CC)OCO2 .
Response: 581

Query: Please report the recorded Ratio IC50 for C=CCOc1ccc2c(c1)c(=O)c(Cc1cccc(C(=O)O)c1)c(C(=O)O)n2Cc1cc2c(cc1CC)OCO2 .
Response: 29

Query: Please report the recorded Ratio IC50 for CCc1cc2c(cc1Cn1c(C(=O)O)c(Cc3cccc(-c4nnn[nH]4)c3)c(=O)c3cc(OCC4CC4)ccc31)OCO2 .
Response: 9.7
